# Test system: MALME-3M melanoma
# test.method.notes: NCI tumour cell line growth inhibition, 48 h
assay.endpoint: TGI

Query :: Form entry - test system: MALME-3M melanoma; read-out: TGI; molecule: O=C1CC(S(=O)(=O)O)C=C1Nc1cccc(Cl)c1 (stereo not given)
Result :: > 100 µM

Query :: # get_value(readout= TGI, system= MALME-3M melanoma) for CC#CC(=O)SCCNC(=O)CC
Result :: > 10 µM

Query :: Request: TGI, test system MALME-3M melanoma, entry Cc1ccc(Nc2nc(C)c(C(/C=C/c3ccc(/C=C/C(=N/NC(=O)C[n+]4ccccc4)c4sc(Nc5ccc(C)cc5[N+](=O)[O-])nc4C)cc3)=N\NC(=O)C[n+]3ccccc3)s2)c([N+](=O)[O-])c1
Result :: > 100 µM

Query :: Lookup: TGI / MALME-3M melanoma / CCN(CC)c1ccc2cc(C(=O)Nc3cccc4ccccc34)c(=N)oc2c1
Result :: > 100 µM

Query :: For the record CCOC(=O)Cc1cc(OC)c(OC)cc1/C(Cl)=C(\C=O)c1ccc(OC)c(OC)c1 , what value of TGI is listed for MALME-3M melanoma?
Result :: 74.3 µM

====

# Test system: NCI/ADR-RES ovarian
# test.method.notes: NCI tumour cell line growth inhibition, 48 h
Please provide measured TGI for the entries that follow.

Query :: # get_value(readout='TGI', item= CC(=O)Nc1ccc(OC2=CCN(C)CC2)cc1 )
Result :: > 100 µM

Query :: // TGI lookup, key: C(CCCCc1nnc(N2CCCCC2)o1)CCCc1nnc(N2CCCCC2)o1
Result :: > 100 µM

Query :: Need TGI of C=C1C(=O)OC2/C=C(/C)C(OC(C)=O)CC(O)/C(C)=C\C(OC(=O)/C(C)=C\C)C12 (centres undefined) , thanks.
Result :: > 100 µM

Query :: Item COc1cccc(-n2ncc3c(N/N=C/c4ccncc4)ncnc32)c1 has what recorded TGI?
Result :: > 25 µM

Query :: Which measured TGI value corresponds to O=c1c2cc(I)ccc2nc(-c2cccs2)n1-c1ccc(O)cc1 ?
Result :: 56.2 µM

Query :: Returns the measured TGI for the input compound. Input: COC(=O)C(Cc1ccccc1)NP(=O)(O)OCC1OC(n2cc(F)c(=O)[nH]c2=O)CC1O (centres undefined)
Result :: > 100 µM

Query :: Bench note: what TGI did Cc1c2c(nn1C)CSCc1cc(n(C)n1)CSc1cc(c3ccccc3c1)OCCCc1c(C(=O)O)n(C)c3c-2c(Cl)ccc13 show?
Result :: 30 µM

Query :: Look at this compound and give its reported TGI. C/C=C(/C)C(=O)O[C@H](C[C@@H](C)[C@H]1CC(c2ccoc2)OC1=O)[C@@]1(C)C(=O)CCC2O[C@]21C (some centres undefined)
Result :: > 100 µM

Query :: # input compound: C[CH2][Sn]([CH2]C)([O]C(=O)C(OC(C)=O)c1ccccc1)[O]C(=O)C(OC(C)=O)c1ccccc1 (centres undefined) ; wanted: its TGI
Result :: > 100 µM

Query :: TGI lookup needed for COc1ccc(-n2c(=O)n(C)c(=O)n2-c2ccc(OC)cc2)cc1 , thanks.
Result :: > 100 µM

Query :: Dear colleague, I am looking for the recorded TGI of the following compound: c1cn(C23C4C5C6C4C2C6C53)cn1 (centres undefined)
Result :: > 100 µM

Query :: What value of TGI has been reported for the following compound? CC(C)(O)CC(=O)NCCn1ccc2ncnc(Nc3ccc(Oc4cccc(C(F)(F)F)c4)c(Cl)c3)c21
Result :: > 10 µM

Query :: So what does the record say about TGI for Cc1ccc2c(c1C)C(=O)/C(=C/c1ccccc1C(=O)O)C2 ?
Result :: > 100 µM

Query :: Fill blank: measured TGI of the compound CCCC(=O)NC(Nc1ccc(S(=O)(=O)Nc2nc(C)cc(C)n2)cc1)(C(F)(F)F)C(F)(F)F is ____.
Result :: > 100 µM

====

Would you kindly list TGI for each of these compounds?
# Tested on: HL-60(TB) leukemia
# test.method.notes: NCI tumour cell line growth inhibition, 48 h

Query :: Fill in the recorded TGI for this compound, with HL-60(TB) leukemia as test system: CCNC(=O)c1cc(/C=C/c2ccc([N+](=O)[O-])o2)nc2ccccc12
Result :: > 100 µM

Query :: // map CCSCCCN(CCCSCC)CCCSCC to recorded TGI (system: HL-60(TB) leukemia)
Result :: > 100 µM

Query :: Recorded TGI for CC(=O)Oc1c2oc3ccc(Cl)cc3c(=O)c2c(O)c2ccsc12 with HL-60(TB) leukemia, please?
Result :: > 100 µM

====

# Test system: SW-620 colon
# test.method.notes: NCI tumour cell line growth inhibition, 48 h
assay.endpoint: TGI

Query :: Would you mind telling me what TGI value was observed for NNC(=O)Cn1c2ccc(Br)cc2c2nc3ccccc3nc21 ?
Result :: > 100 µM

Query :: Quick one: TGI of COc1ccc(-c2cc(-c3cc4cc(Br)ccc4nc3Cl)c(C#N)c(N)n2)cc1 ?
Result :: > 12.5 µM

Query :: Quick one: TGI for CC1(c2ccc[n+](Cc3ccccc3)c2)OCCO1 ?
Result :: > 100 µM

Query :: Please look up its TGI: O=c1[nH]nc(-c2ccccc2)n1/N=C/c1cccnc1
Result :: > 100 µM

Query :: Using the record for Cc1nc2c(sc(=S)n2-c2ccccc2)c(=O)[nH]1 , report its TGI.
Result :: > 100 µM

Query :: What does the data say about its TGI? Entry: CCOC(=O)c1c(N2CCCC2)ncn(Cc2ccccc2)c1=S
Result :: > 100 µM

Query :: Looking for the measured TGI of CC1(C)[C@H]2CC[C@]1(C)[C@H](OC(=O)NNC(=O)O[C@@H]1C[C@@H]3CC[C@@]1(C)C3(C)C)C2 , can you help?
Result :: 72.9 µM

Query :: Can you look up the measured TGI of [N-]=[N+]=NC(CI)c1cn([C@H]2C[C@H](O)[C@@H](CO)O2)c(=O)[nH]c1=O (stereo partly specified) for me?
Result :: > 100 µM

Query :: Fill in: TGI of Cc1ccc(N2C(=O)C3C=CC(n4[nH]c(=O)n(Cc5ccccc5)c4=O)CC3C2=O)cc1 (stereo unspecified) is ___
Result :: > 100 µM

Query :: Can you look up the measured TGI of COc1cc(C(C)c2cc3c(cc2OCCO)OCO3)cc(OC)c1OC (stereo unspecified) for me?
Result :: > 100 µM

Query :: Fill in the blank: the reported TGI of COC1OC2COC1(OC)C1OC(C)(C)OC21 (stereo unspecified) is ____.
Result :: > 100 µM

Query :: Please give the measured TGI for this compound: COc1c(O)cc(O)c2c(=O)cc(-c3ccccc3)oc12
Result :: > 100 µM

Query :: GET /values?readout=TGI&item= O=c1cc(N2CCN(c3cc(=O)n4ccccc4n3)CC2)oc2ccccc12
Result :: > 100 µM

Query :: Which TGI is reported for this compound? COc1ccc(-n2c(=O)n(C)c(=O)n2-c2ccc(OC)cc2)cc1
Result :: > 100 µM

Query :: Item under review: Nc1ncnc2c1nnn2C1CCC(CP(=O)(O)O)C1 (stereo unspecified) . Reported TGI?
Result :: > 100 µM

Query :: What does the data say about its TGI? Entry: Cc1c2c(nn1C)CSCc1cc(n(C)n1)CSc1cc(c3ccccc3c1)OCCCc1c(C(=O)O)n(C)c3c-2c(Cl)ccc13
Result :: 16 µM

Query :: I would be grateful if you could share the reported TGI for O=C(O)c1nc(-c2ccccc2)[nH]c1C(=O)O .
Result :: 6.78 µM

Query :: Entry C/C=C(/C)C(=O)O[C@H](C[C@@H](C)[C@H]1CC(c2ccoc2)OC1=O)[C@@]1(C)C(=O)CCC2O[C@]21C (stereo partly specified) has what TGI?
Result :: > 100 µM

Query :: Requested field: TGI. Item: COc1ccc2nc3cc([N+](=O)[O-])ccc3c(Nc3ccc(S(=O)(=O)NC(C)=O)cc3)c2c1
Result :: > 100 µM

Query :: Given the entry OC(CCNCc1ccccc1)c1ccc2ccccc2c1 (stereo unspecified) , report its measured TGI.
Result :: 43.1 µM

Query :: Give its TGI value. Item: C(CCCCc1nnc(N2CCCCC2)o1)CCCc1nnc(N2CCCCC2)o1
Result :: > 100 µM

====

# Tested on: SK-MEL-2 melanoma
# test.method.notes: NCI tumour cell line growth inhibition, 48 h
Please respond with reported TGI for every item in the list.

Query :: // lookup TGI for COC(=O)CCC(NC(=S)N/N=C/c1ccco1)C(=O)OC (centres undefined)
Result :: > 100 µM

Query :: Fill in the blank: the reported TGI of O=C(COc1ccc(/C=C2\Oc3ccccc3C2=O)cc1)Nc1nc2c(s1)CCCC2 is ____.
Result :: 50.2 µM

Query :: Which TGI value belongs to N#Cc1ccccc1-c1nc2c3c(c(N)ccc3n1)C(=O)c1ccccc1-2 ?
Result :: > 100 µM

Query :: Entry under review: O=C(OCCN=c1c2ccccc2ccc2ccccc12)c1ccc([N+](=O)[O-])cc1 . Reported TGI?
Result :: > 100 µM

Query :: Report TGI for COc1ccc(-c2cc(-c3ccc(Nc4ccnc5cc(Cl)ccc45)cc3)[nH]c(=O)c2C#N)c2ccccc12 please.
Result :: > 100 µM

Query :: // lookup TGI for COc1cc2c(cc1OC)C(Cl)C(c1ccc(Cl)c(Cl)c1)=C2Cl (centres undefined)
Result :: 21.3 µM

Query :: What value of TGI has been reported for the following compound? CC1=C(CO)C(=O)O[C@@H]([C@@H](C)[C@H]2CC[C@H]3[C@@H]4C[C@@H](O)[C@@]5(O)CC=CC(=O)[C@]5(C)[C@H]4CC[C@]23C)C1
Result :: > 100 µM

Query :: Quick one: TGI for COc1ccc2c(c1)C(=O)c1c-2c(N(C)C)nc2ccccc12 ?
Result :: > 100 µM

Query :: Given the compound O=c1nc2oc3ccc4ccccc4c3cc-2s1 , what is its reported TGI?
Result :: > 100 µM
